Data provenance: patent US7338776B2

Target or test system: human UGPPase (Homo sapiens)
Construct: made in house; host or cells: E. coli AD494(DE3), plasmid pET11a-AAD15563.1
Sequence (O95848 whole entry): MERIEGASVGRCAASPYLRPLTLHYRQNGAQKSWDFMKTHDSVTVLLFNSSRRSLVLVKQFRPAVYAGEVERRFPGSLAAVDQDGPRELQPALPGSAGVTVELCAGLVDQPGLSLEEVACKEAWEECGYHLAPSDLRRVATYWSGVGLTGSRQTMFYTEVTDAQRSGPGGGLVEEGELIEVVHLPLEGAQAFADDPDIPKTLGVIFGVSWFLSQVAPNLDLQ
Assay info: UGPPase activity measurement (G1P produced, coupled NADH read-out), substrate specificity and UDPG dependence, human recombinant enzyme
Format: biochemical
Measurement conditions: 5 mM of corresponding substrate, UDPG = 100%
Procedure: UGPPase activity is defined based on the amount of G1P produced by the enzyme. The measurement is carried in two-step reactions according to the method reported by Rodriguez-Lopez et al. (11). […] The reaction mixture is placed in a 96-well FluoroNunc™ plate (NUNC) and incubated at 37° C. for 10 minutes. […] The amount of NADH is determined by measuring OD at 340 nm using a microplate reader (MOLECULAR DEVICE). […]

Molecule	% activity with respect to UDPG
Nc1ncnc2c1ncn2[C@@H]1O[C@H](COP(=O)(O)OP(=O)(O)OC[C@H]2OC(O)[C@H](O)[C@@H]2O)[C@@H](O)[C@H]1O (stereo partly drawn)	110%
NC(=O)c1ccc[n+]([C@@H]2O[C@H](COP(=O)([O-])OP(=O)(O)OC[C@H]3O[C@@H](n4cnc5c(N)ncnc54)[C@H](O)[C@@H]3O)[C@@H](O)[C@H]2O)c1	bdl
Nc1nc2c(ncn2[C@@H]2O[C@H](COP(=O)(O)OP(=O)(O)O[C@H]3O[C@H](CO)[C@@H](O)[C@H](O)[C@H]3O)[C@@H](O)[C@H]2O)c(=O)[nH]1	~10%
